B1: ADAMTS4 (parent)
chain: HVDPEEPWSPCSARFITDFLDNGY

# Variants of: B1
# MEASUREMENT_NOTES: protein stability index of a GFP-peptide fusion (GPS, HEK-293T) (PSI 1-6); higher = more stable;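 note: lentivirally expressed fusions sorted by FACS into six bins by GFP to DsRed ratio, PSI derived from sequencing read proportions per bin multiplied by bin number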
# PARTICULARS: c terminus: a fixed tail appended
// label = satisfied if protein stability index is not less than 2, otherwise not satisfied

Sample answers from the record:
# MUTATION_NOTATION, QUALITATIVE_LABEL
records = [
    ("S9D", "satisfied"),
    ("I16G", "satisfied"),
    ("Y24H", "not satisfied"),
    ("N22A", "not satisfied"),
    ("C11L", "not satisfied"),
    ("P7K", "not satisfied"),
]

Prompt line: Does N22S have a reported protein stability index of at least 2?
Response line: not satisfied

Prompt line: Does P4K have a reported protein stability index of at least 2?
Response line: not satisfied

Prompt line: Does V2H have a reported protein stability index of at least 2?
Response line: satisfied

Prompt line: Does D18S have a reported protein stability index of at least 2?
Response line: not satisfied

Prompt line: Does L20Q have a reported protein stability index of at least 2?
Response line: satisfied

Prompt line: Does E6K have a reported protein stability index of at least 2?
Response line: not satisfied

Prompt line: Does P4L have a reported protein stability index of at least 2?
Response line: not satisfied

Prompt line: Does T17I have a reported protein stability index of at least 2?
Response line: satisfied

Prompt line: Does F19Y have a reported protein stability index of at least 2?
Response line: not satisfied

Prompt line: Does A13C have a reported protein stability index of at least 2?
Response line: satisfied

Prompt line: Does R14P have a reported protein stability index of at least 2?
Response line: not satisfied

Prompt line: Does G23S have a reported protein stability index of at least 2?
Response line: not satisfied

Prompt line: Does I16K have a reported protein stability index of at least 2?
Response line: not satisfied
